- experiment notes: HUVEC growth inhibition – cell-based, human, primary screen (AID 575);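 note: 100% = median of untreated cell wells with 0.1% DMSO on each plate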
- condition context: HUVEC proliferation, CellTiter-Glo luminescence, 72 h; at 10 µM; stronger effect = lower value
Label true (1) when viability is strictly below 90%; at or above that, label false (0).

## Task Does COc1ccc(C2C3=C(CCCC3=O)Nc3nc(SCc4ccccc4)nn32)cc1OC (stereo not given) have viability strictly under 90%?
## Result false (0)

## Task Does O=C(NC1CCCCC1)C1CCCN1C(=O)NCc1ccccc1 (stereo not given) have viability strictly under 90%?
## Result false (0)

## Task Does `Cc1cc(/C=N\O)c(C)n1-c1ccncc1` have viability strictly under 90%?
## Result true (1)

## Task Does CCCNC(=O)NC1C(NC(=O)NCCC)N(C)C(=O)N1C (stereo not given) have viability strictly under 90%?
## Result false (0)

## Task Does `CCCCOc1ccc(-c2nnn(C(C)(C)C(=O)OC)n2)cc1` have viability strictly under 90%?
## Result true (1)

## Task Does `COc1ccc(S(=O)(=O)NCCOc2ccccc2)cc1OC` have viability strictly under 90%?
## Result false (0)

## Task Does O=C(O)C1CSC2c3ccccc3C(=O)N12 (stereo not given) have viability strictly under 90%?
## Result false (0)

## Task Does COc1ccc(N2C(=O)CC(N3CCCC4CCCCC43)C2=O)cc1 (stereo not given) have viability strictly under 90%?
## Result false (0)

## Task Does `CCCCCC#CCC#CCC#CCC#CCCCC(=O)O` have viability strictly under 90%?
## Result true (1)

## Task Does `Cc1cc(Nc2ccccc2)n(-c2ccccc2)n1` have viability strictly under 90%?
## Result false (0)

## Task Does CCCC1CCC(C(=O)Nn2cnc3ccccc3c2=O)CC1 (stereo not given) have viability strictly under 90%?
## Result false (0)

## Task Does `CCCOC(=O)/C(C(N)=NCc1ccccc1)=C(\O)OCCC` have viability strictly under 90%?
## Result true (1)

## Task Does `Cc1c(C)[n+](=O)c2c(n1[O-])CCCCC2` have viability strictly under 90%?
## Result false (0)

## Task Does `O=C(CCNC(=O)c1ccc(Br)o1)NC1CCCC1` have viability strictly under 90%?
## Result true (1)

## Task Does COc1ccccc1C(=O)N1CCCC(c2nc(-c3cc(OC)c(OC)c(OC)c3)no2)C1 (stereo not given) have viability strictly under 90%?
## Result false (0)

## Task Does Cc1ccc(CNC(=O)C2CC(=O)OC23CCCC3)c(C)c1 (stereo not given) have viability strictly under 90%?
## Result false (0)

## Task Does `N#CCc1nc(CSc2nc3ccccc3s2)cs1` have viability strictly under 90%?
## Result false (0)

## Task Does `Cn1c(=O)[nH]c(=O)c2c1nc(Br)n2Cc1ccccc1F` have viability strictly under 90%?
## Result true (1)

## Task Does `Cc1cc(NC(=O)c2ccc3nc(-c4ccccc4)c(-c4ccccc4)nc3c2)no1` have viability strictly under 90%?
## Result true (1)

## Task Does CC1CCCN(S(=O)(=O)c2ccc(C(=O)Nc3nnc(-c4ccccc4Cl)o3)cc2)C1 (stereo not given) have viability strictly under 90%?
## Result true (1)

## Task Does `O=C1c2ccccc2C(=O)N1CCCn1nnc(-c2ccc(N3CCOCC3)cc2)n1` have viability strictly under 90%?
## Result false (0)

## Task Does `Cc1ccc(Nc2nc(Oc3ccc(=O)[nH]n3)nc(N(C)C)n2)cc1` have viability strictly under 90%?
## Result false (0)

## Task Does CCC(C(=O)N1CCc2cc(OC)c(OC)cc2C1)c1ccccc1 (stereo not given) have viability strictly under 90%?
## Result false (0)

## Task Does C/C(CC(O)(/C=N/O)c1ccccc1)=N\O (stereo not given) have viability strictly under 90%?
## Result false (0)

## Task Does `c1ccc2c(SCc3cn4cccnc4n3)ncnc2c1` have viability strictly under 90%?
## Result false (0)

## Task Does `O=C(Nc1cnn(Cc2ccc(F)cc2)c1)c1cnccn1` have viability strictly under 90%?
## Result true (1)

## Task Does `CCc1nnc(NC(=O)CSc2nc(-c3ccc(OC)cc3)ns2)s1` have viability strictly under 90%?
## Result false (0)

## Task Does `C=CCn1c(SCC(=O)C(C)(C)C)nnc1-c1ccccn1` have viability strictly under 90%?
## Result false (0)

## Task Does `O=C(CN1CCN(Cc2ccc3c(c2)OCO3)CC1)N1CCc2[nH]c3ccc(F)cc3c2C1` have viability strictly under 90%?
## Result true (1)

## Task Does `COc1ccc(CNc2nc3nc(C)c(Cl)c(C)n3n2)cc1OC` have viability strictly under 90%?
## Result false (0)

## Task Does N#CC1=C(N)OC2=C(CCC/C2=C/c2ccoc2)C1c1ccoc1 (stereo not given) have viability strictly under 90%?
## Result false (0)

## Task Does `CC(=O)n1nc(-c2ccco2)nc1SCc1ccccc1` have viability strictly under 90%?
## Result false (0)

## Task Does `CCN(CC)CCOC(=O)c1ccc(NC(=O)COc2cc(=O)n(CC)c3ccccc23)cc1` have viability strictly under 90%?
## Result false (0)

## Task Does `COC(=O)CSc1nnc(-c2cccs2)n1-c1ccc(Cl)cc1` have viability strictly under 90%?
## Result false (0)

## Task Does COc1ccccc1C(=O)NCC(c1cccnc1)N(C)C (stereo not given) have viability strictly under 90%?
## Result false (0)
